assay: yeast V-ATPase proton transport modulators, S. cerevisiae, pHLuorin, HTS validation (AID 504600);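 further: plate controls were DMSO for no effect and reference compound for full effect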; details: S. cerevisiae pHLuorin cytosolic pH, at 10 µM
Active and inactive are the calls of the source. No stated cut-off is given here; in the data, active means response above about 15%; inactive means the rest.
Possible outcomes: TRUE for active, FALSE for inactive

{"COMPOUND": "Cc1cnc(C(=O)NCCc2ccc(S(=O)(=O)NC(=O)NC3CCCCC3)cc2)cn1", "CATEGORY": "FALSE"}
{"COMPOUND": "Cc1ccc(CSCC(=O)NCCCN2CCOCC2)cc1", "CATEGORY": "FALSE"}
{"COMPOUND": "Cc1ncc([N+](=O)[O-])n1CC(O)CCl (centres undefined)", "CATEGORY": "FALSE"}
{"COMPOUND": "CCOC(=O)[C@H](CCc1ccccc1)N[C@@H](C)C(=O)N1CCC[C@H]1C(=O)O", "CATEGORY": "FALSE"}
{"COMPOUND": "CC12CCC(C(=O)Nc3ccccc3Br)(C/C1=N\\O)C2(C)C (centres undefined)", "CATEGORY": "FALSE"}
{"COMPOUND": "COC(=O)c1ccccc1OCCOCCOc1cccc2ccc(C)nc12", "CATEGORY": "FALSE"}
{"COMPOUND": "COc1ccc(CN(C)CCc2ccccn2)cc1OC", "CATEGORY": "TRUE"}
{"COMPOUND": "COc1ccc(C(=O)/C=C2/c3ccccc3CC(C)(C)N2C)cc1", "CATEGORY": "FALSE"}
{"COMPOUND": "CC1CNCCN1S(=O)(=O)c1cccc2cnccc12 (centres undefined)", "CATEGORY": "FALSE"}
{"COMPOUND": "COc1ccc(CC(=O)N2CC3(C)CC2CC(C)(C)C3)cc1OC (centres undefined)", "CATEGORY": "FALSE"}
{"COMPOUND": "CC[N+](C)(CC)CCOC(=O)C(O)(c1ccccc1)C1CCCCC1 (centres undefined)", "CATEGORY": "FALSE"}
{"COMPOUND": "Nc1ccc(N=Nc2ccccc2)c(N)n1", "CATEGORY": "FALSE"}
{"COMPOUND": "CCn1c(=N)c(C(=O)NC)cc2c(=O)n3cccc(C)c3nc21", "CATEGORY": "FALSE"}
{"COMPOUND": "Cn1c(=O)c2c(ncn2CC(O)CO)n(C)c1=O (centres undefined)", "CATEGORY": "FALSE"}
{"COMPOUND": "COc1cccc(OC)c1C(=O)Nc1nc2ccc([N+](=O)[O-])cc2s1", "CATEGORY": "FALSE"}
{"COMPOUND": "CCc1ccc(/C=C2\\SC(=S)N(CCC(=O)N3CCN(C)CC3)C2=O)cc1", "CATEGORY": "FALSE"}
{"COMPOUND": "NC12CC3CC(C1)CC(O)(C3)C2", "CATEGORY": "FALSE"}
{"COMPOUND": "Fc1cc(F)cc(NC(=S)NCCCN2CCOCC2)c1", "CATEGORY": "FALSE"}
{"COMPOUND": "O=C(/C=C/c1ccc(Cl)cc1)NCCc1ccccc1", "CATEGORY": "FALSE"}
{"COMPOUND": "CC[C@H](CO)NCCN[C@H](CC)CO", "CATEGORY": "FALSE"}
{"COMPOUND": "O=C(O)c1cc(-c2ccccc2)nc2ccccc12", "CATEGORY": "FALSE"}
{"COMPOUND": "CCc1cc(=O)oc2cc(OCC=C(C)C)ccc12", "CATEGORY": "FALSE"}
{"COMPOUND": "OCC1(CCOc2ccccc2)CCN(CCCn2cccn2)CC1", "CATEGORY": "FALSE"}
{"COMPOUND": "COc1ccc(CN(CCC(c2ccc(F)cc2)C2CCOC(C)(C)C2)C(=O)c2ccco2)cc1 (centres undefined)", "CATEGORY": "FALSE"}

###

Documented GFP response relative to DMSO across a set of compounds
experiment: LAP4-GFP expression modulators in yeast, confirmation, cell-based, cherry picks, flow cytometry, mother/daughter gates (AID 2271);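 further: ratio of sample to DMSO plate mean so 100% equals DMSO level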; details: S. cerevisiae LAP4-GFP strain, 3 h, measured here: daughter cell gate response, at 10 µM, stronger effect = higher value, 100 means same as DMSO control

{"COMPOUND": "O=C(N/N=C/c1ccc(F)cc1)c1ccc(Br)cc1", "GFP response relative to DMSO [%]": 109}
{"COMPOUND": "CCN(CC)CCNC(=O)Cn1c(-c2ccccn2)nc2ccccc21", "GFP response relative to DMSO [%]": 98.7}
{"COMPOUND": "COC(=O)C1CCN(C(=O)COC(=O)CCc2nc3ccccc3c(=O)[nH]2)CC1", "GFP response relative to DMSO [%]": 97.9}
{"COMPOUND": "C/C(=N\\NC(=O)c1cccc(Br)c1)c1ccc(Br)cc1", "GFP response relative to DMSO [%]": 97.5}
{"COMPOUND": "CCCn1c(=N)c(C(=O)NC2CCCC2)cc2c(=O)n3cccc(C)c3nc21", "GFP response relative to DMSO [%]": 100}
{"COMPOUND": "CC(NC(=O)C1CCC(CNS(=O)(=O)c2ccccc2)CC1)c1ccccc1 (configuration not stated)", "GFP response relative to DMSO [%]": 102}
{"COMPOUND": "CC(=O)SC(C[N+](=O)[O-])c1cn(C(C)=O)c2ccccc12 (configuration not stated)", "GFP response relative to DMSO [%]": 216}
{"COMPOUND": "O=c1[nH]c2c(=O)[nH]cnc2nc1-c1ccccc1", "GFP response relative to DMSO [%]": 95.9}
{"COMPOUND": "O=S(=O)(c1ccc(NC(=S)N/N=C/c2cccc(Oc3ccccc3)c2)cc1)N1CCOCC1", "GFP response relative to DMSO [%]": 93.5}
{"COMPOUND": "O=[N+]([O-])c1cc(C(F)(F)F)ccc1Sc1ccccn1", "GFP response relative to DMSO [%]": 98.7}
{"COMPOUND": "CCOC(=O)CS(=O)(=O)c1nc(-c2ccc(F)cc2)cc(C(F)(F)F)n1", "GFP response relative to DMSO [%]": 170}
{"COMPOUND": "CC1CCCCN1S(=O)(=O)c1ccc(C(=O)Nc2nnc(-c3ccccc3Cl)o2)cc1 (configuration not stated)", "GFP response relative to DMSO [%]": 94.4}
{"COMPOUND": "COc1ccc(C2c3c(oc4ccccc4c3=O)C(=O)N2CCN2CCOCC2)cc1OC (configuration not stated)", "GFP response relative to DMSO [%]": 116}
{"COMPOUND": "O=C(NCCCSc1ccccc1)c1cc(Cl)ccc1O", "GFP response relative to DMSO [%]": 104}
{"COMPOUND": "CCc1ccc(CNC(=O)CCC(=O)N2Cc3cccc(OC)c3Oc3ncccc32)cc1", "GFP response relative to DMSO [%]": 94.2}
{"COMPOUND": "O=C(CN1C(=O)c2cccc3cccc(c23)C1=O)N1CCCCCC1", "GFP response relative to DMSO [%]": 94.2}
{"COMPOUND": "Cc1ccc(C(=O)Sc2cccccc2=O)cc1", "GFP response relative to DMSO [%]": 281}
{"COMPOUND": "O=S(=O)(c1ccc(Oc2ccccc2)cc1)N1CCOCC1", "GFP response relative to DMSO [%]": 95.6}
{"COMPOUND": "COc1cccc(N=Nc2ccc3cccnc3c2O)c1", "GFP response relative to DMSO [%]": 140}
{"COMPOUND": "CC(=O)Nc1ccc(Nc2cc(C)nc3c(-c4ccc(Cl)cc4)c(C)nn23)cc1", "GFP response relative to DMSO [%]": 92.8}
{"COMPOUND": "c1ccc(-c2n[nH]c3ccccc23)cc1", "GFP response relative to DMSO [%]": 101}
{"COMPOUND": "COc1cc(NC(C)=O)ccc1NC(=O)c1cc2ccccc2o1", "GFP response relative to DMSO [%]": 97.2}
{"COMPOUND": "CCOC(=O)Cc1csc(NC(=O)c2sc3nc4cc(C)ccc4cc3c2N)n1", "GFP response relative to DMSO [%]": 92}
{"COMPOUND": "Nc1ccc2nc(-c3ccc(-c4nc5ccc(N)cc5[nH]4)cc3)[nH]c2c1", "GFP response relative to DMSO [%]": 108}
{"COMPOUND": "COC(CNC(=O)c1ccc2c3c(onc13)-c1ccccc1C2=O)OC", "GFP response relative to DMSO [%]": 170}
{"COMPOUND": "Cc1ccc(C(C[N+](=O)[O-])Sc2ccc(N)cc2)cc1 (configuration not stated)", "GFP response relative to DMSO [%]": 133}
{"COMPOUND": "O=C(Nc1ccccc1O)c1ccc(Cl)cc1", "GFP response relative to DMSO [%]": 100}
{"COMPOUND": "COc1ccc(CN2CN(C(C)C)CSC2=S)cc1", "GFP response relative to DMSO [%]": 106}
{"COMPOUND": "O=C(O)C1CCC(NSc2ccccc2[N+](=O)[O-])CC1 (configuration not stated)", "GFP response relative to DMSO [%]": 133}
{"COMPOUND": "CCSc1nnc(NC(=O)c2ccccn2)s1", "GFP response relative to DMSO [%]": 223}
{"COMPOUND": "O=c1c2c(-c3cccs3)csc2ncn1/N=C/c1ccccn1", "GFP response relative to DMSO [%]": 112}
{"COMPOUND": "CCNC(=O)/C(C#N)=C/c1c(N(Cc2ccccc2)Cc2ccccc2)nc2ccccn2c1=O", "GFP response relative to DMSO [%]": 101}
{"COMPOUND": "COC(=O)NC1CCC(CC2CCC(NC(=O)OC)CC2)CC1 (configuration not stated)", "GFP response relative to DMSO [%]": 92.8}
{"COMPOUND": "CC[n+]1c(/C=C/c2ccc(N(C)C)cc2)ccc2ccccc21", "GFP response relative to DMSO [%]": 104}
{"COMPOUND": "COc1cccc(-c2noc(-c3cccnc3)n2)c1", "GFP response relative to DMSO [%]": 102}
{"COMPOUND": "Cc1cc(N2CCC(C)CC2)n2nc(C)c(-c3ccccc3)c2n1", "GFP response relative to DMSO [%]": 93.6}
{"COMPOUND": "Cn1nnnc1N=N/C(=N/Nc1ccccc1)c1ccccc1", "GFP response relative to DMSO [%]": 107}
{"COMPOUND": "O=C(Oc1ccnc2cc(Cl)ccc12)N1CCCCCC1", "GFP response relative to DMSO [%]": 111}
{"COMPOUND": "CC(=O)c1ccccc1NCC(=O)Nc1ccc(C)cc1", "GFP response relative to DMSO [%]": 98.2}
{"COMPOUND": "Cc1cc(O)c(C(=O)/C=C/c2ccccc2Br)c(=O)o1", "GFP response relative to DMSO [%]": 137}
{"COMPOUND": "Cc1ccc(-c2csc3ncn(Cc4ccc(C(=O)O)cc4)c(=O)c23)cc1C", "GFP response relative to DMSO [%]": 114}
{"COMPOUND": "Cc1cccc(NC(=O)c2ccc([N+](=O)[O-])o2)c1", "GFP response relative to DMSO [%]": 115}
{"COMPOUND": "Cc1ccccc1C(=O)Nc1ccccc1", "GFP response relative to DMSO [%]": 97.6}
{"COMPOUND": "COc1ccc(N2CCN(C(=O)c3ccccc3)CC2)c([N+](=O)[O-])c1", "GFP response relative to DMSO [%]": 104}
{"COMPOUND": "N=c1ccn(CC(=O)c2ccc(-c3ccccc3)cc2)cc1", "GFP response relative to DMSO [%]": 93.6}
{"COMPOUND": "Cc1c(NC(=O)Nc2ccc3c(c2)OCO3)c(=O)n(-c2ccccc2)n1C", "GFP response relative to DMSO [%]": 96.5}
{"COMPOUND": "O=C(Nc1nc(-c2ccc(Cl)cc2)cs1)c1cccnc1", "GFP response relative to DMSO [%]": 101}
